# Test: 14C assay with IPTG-induced recombinant E. coli cells: 14CO2 captured from [14C]-carboxyl-labeled dicamba
# Stated conditions: induced recombinant E. coli cells, [14C]-carboxyl-labeled dicamba, 14CO2 capture
Reported endpoint: Dicamba Decarboxylase Activity

5 (protein, listed as Staphylococcus aureus) MAQNNMEANQMKSITFEEHYVIEDIQKETMNAISADPKGVPMKVMLEGLEKKTGFTNADELSHHDERIQFMNNQDVQIQVLSYGNGSPSNLVGQKAIELCQKANDQLANYIAQYPNRFVGFATLPINEPEAAAREFERCINDLGFKGALIMGRAQDGFLDQDKYDIIFKTAENLGVPIYLHPAPVNSDIYQSYYKGNYPEVTAATFACFGYGWHIDVGIHAIHLVLSGIFDRYPKLNMIIGHWGEFIPFFLERMDEALFAEHLNHPVSYYFKNNFYITPSGMLTKPQFDLVKKEAGIDRILYAADYPYIEPEKLGVFLDELGLTDEEKEKISYTNGAKLLGLSSNN	High
17 (protein, Aspergillus niger) MARGKIALEEAFEVKGMDEEIDAQAALYIAPKDVERYKRQIVSITDERLQLSDQNGIGYSILSLTVPGIQGITDKDKAEKRARDVNNYIHDQIKDHRDRLGAFAALSMHDPRQAGHELRRCVKELGFHGALLNDVQHTGEGDDDQPLFYDQPDYDEFWRVAVELDVPVYLHPAAPLRDTLIYKQSYEDRKYLVGPPQSYCNGVALHLMGIIVNGVFDRFPNLKVIVGHMGERIPFDFWRMDHWVKGVTRPLAEKNGDTVCQKEPLYYFKRNIYITTSGHFSTQNLRYLYEWLGDERMMFSVDFPYERMEHGCQWYDDDAEKIKEALGGRDGYLRVGRDNARRLFKLTKFKDCDAV	Low
25 (protein, listed as Acidovorax avenae) MAQGKIGLEEHFAIPETLQDSAGFVPGDYWKELSLRLLDIHERRLREMDENGMEMMILSLNAPAVQAIPDTKKAVEIAVRANDFLAEQVARRPDRFQAFAALPMQDPDLATRELERCMQDLGFRGALVNGFSQVGTPENVVYYDAPQYGDFWAAVERLDAPFYLHPRNPIASWAQIYQGHPWLMGPTWAFAQETAVHALRLMASGLFDRHPGLRIILGHLGEGLPYNMWRVDHRNAWVDMPKGYPAKRKLCDYFHENFYLTTSGNFRTQTLIDALLEVGADRILFSTDWPFENVDHAAHWFDDAAISEADRLKIGRTNALSLFKLPQG	Low
85 (protein, listed as Maritimibacter alkaliphilus) MAADRKPGLVSVEEGFMIPEVVAELSRIAGGVPSMKSGPIAGPFMDDLLDIGKGRVARMDADGVAVQILALAAPGVQKFDPDTALALSRLTNDRLAEAIAAHPARFGGLAAAPPQAAREGAKELDRAITTLGLNGLIVNSHTNDLYLDDPSFWPLLEAAEALDVPVYLHPREPAAGIEGGLMAMTGFTVGWAYAVETGTHLLRMIAAGVFDRFPRLRIVLGHLGEMIPFMLDRIDNRYPFEMGVTGAKPLPRKPSDYFRDHVTVATSGMNFNAPMRAAIEVLGADKVMFAADYPMERQDEEVAKFAALDLTPDERKRIGEDNARRVFGL	Low
